// data source = patent US20250340510A1

target under test: TRPML1 (Homo sapiens, UniProt Q9GZU1)
Sequence (Q9GZU1 17-572 limits assumed): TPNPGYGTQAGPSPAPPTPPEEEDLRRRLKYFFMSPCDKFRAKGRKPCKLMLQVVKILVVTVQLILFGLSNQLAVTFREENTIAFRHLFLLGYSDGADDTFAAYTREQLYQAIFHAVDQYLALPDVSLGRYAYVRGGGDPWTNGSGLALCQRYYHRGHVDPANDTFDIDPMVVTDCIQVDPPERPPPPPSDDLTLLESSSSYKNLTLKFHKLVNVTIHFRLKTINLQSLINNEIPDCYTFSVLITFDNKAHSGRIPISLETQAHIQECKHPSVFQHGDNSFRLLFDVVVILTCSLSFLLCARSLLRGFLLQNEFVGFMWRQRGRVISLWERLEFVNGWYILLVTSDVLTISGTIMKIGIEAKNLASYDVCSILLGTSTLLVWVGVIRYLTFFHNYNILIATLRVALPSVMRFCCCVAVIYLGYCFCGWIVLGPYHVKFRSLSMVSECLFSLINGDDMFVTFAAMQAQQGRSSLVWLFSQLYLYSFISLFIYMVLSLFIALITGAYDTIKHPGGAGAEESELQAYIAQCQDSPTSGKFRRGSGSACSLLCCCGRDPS
run description: Calcium flux in HEK293 overexpressing TRPML1 plasma membrane variant (FLIPR, Calcium 6 dye)
Type: cell-based
study conditions: HEK293/TRPML1-PM clone A5 cells; 4-parameter logistic fit; read-out: TRPML1 calcium flux (FLIPR) dose response: EC50
pEC50: −log10 of the molar value.
measured endpoint: pEC50

INSERT INTO results (compound, value_reported) VALUES
  ('CCN(c1ccccc1NS(=O)(=O)c1ccc(S(=O)(=O)N(C)C)cc1)C1CCCCC1 [Compound 60]', 7.06);

I = CN(CC12CC(C1)C2)c1ccccc1NS(=O)(=O)c1ccc(S(=O)(=O)N(C)C)cc1 [Compound 66]
II = CN(CCCn1cccn1)c1ccccc1NS(=O)(=O)c1ccc(S(=O)(=O)N(C)C)cc1 [Compound 105]
III = CCN(C)c1c(Cl)cccc1NS(=O)(=O)c1ccc(S(=O)(=O)N(C)C)cc1 [Compound 78]
## Task Reorder the items by pEC50, least to greatest. Hello, could you send the labels back in the order asked? Thank you.
## Result II, III, I

A = CN(Cc1ccc(F)cn1)c1ccccc1NS(=O)(=O)c1ccc(S(=O)(=O)N(C)C)cc1 [Compound 43]
B = CCN(C)c1ccccc1NS(=O)(=O)c1ccc(S(=O)(=O)N(C)C)cc1 [Compound 9]
## Task Between A and B , whose recorded pEC50 is greater? Please respond with the label that marks your chosen entry.
## Result A
(A: 6.06, B: 5.46)

P = CN(c1ccc(F)cc1NS(=O)(=O)c1ccc(S(=O)(=O)N(C)C)cc1)C1CCCCC1 [Compound 53]
Q = CN(c1ccccc1NS(=O)(=O)c1ccc(S(=O)(=O)N(C)C)cc1)C1CC(F)(F)C1 [Compound 40]
R = CN(CC1CCOCC1)c1ccccc1NS(=O)(=O)c1ccc(S(=O)(=O)N(C)C)cc1 [Compound 11]
S = CN(CC1CCOC1)c1ccccc1NS(=O)(=O)c1ccc(S(=O)(=O)N(C)C)cc1 (stereo not shown) [Compound 112]
## Task Order the records so the highest pEC50 appears first and the lowest last. Hello, could you send the labels back in the order asked? Thank you.
## Result Q, P, R, S
(Q: 6.39, P: 5.97, R: 5.68, S: 5.43)

a = CC(C)CN(C)c1ccccc1NS(=O)(=O)c1ccc(S(=O)(=O)N(C)C)cc1 [Compound 7]
b = CN(c1ccccc1NS(=O)(=O)c1ccc(S(=O)(=O)N(C)C)cc1)C1CCOCC1 [Compound 19]
## Task Between a and b , whose recorded pEC50 is greater? Please respond with the label that marks your chosen entry.
## Result a
